experiment.summary: Viability of spleen immune cells cultured in vitro (cytotoxicity)
Assay type: cell-based, mice
condition.set: mouse, immune cells separated from the spleen, cultured in vitro; 30 nM; 2nd day
reported.property: viability at 2 day, 0.03 µM (%)
Numbers only, in %.

Task item: Field request: viability at 2 day, 0.03 µM | item: `CCCCCC1=C/C(=C/c2[nH]c(-c3ccc[nH]3)cc2OC)N=C1C`
Reply: 70

----------
experiment.summary: Viability of spleen immune cells cultured in vitro (cytotoxicity)
Type: cell-based, mice
condition.set: mouse, immune cells separated from the spleen, cultured in vitro; 30,000 nM; 3rd day
Method: Germ-free test animals, mice BDF1 and B6C3F1, obtained from Genetic Resources Center, Korean Research Institute of Bioscience and Biotechnology in the Korean Institute of Science and Technology, were used for the assay of the immunosuppressive activity of prodigiosin. […] When T lymphocyte activity was measured by use of a graft versus host reaction and a T cell-dependent antibody producing reaction, the prodigiosin suppressed the immune response, but exerted no toxicity on animals. […]
reported.property: viability at 3 day, 30000 nM (%)
One number for each entry, in %.

Task item: Field request: viability at 3 day, 30000 nM | item: CCCCCC1=C/C(=C/c2[nH]c(-c3ccc[nH]3)cc2OC)N=C1C [Prodigiosin, prodigiosin]
Reply: 4
